- Tested on: RPMI-8226 leukemia
- ASSAY OVERVIEW: NCI-60 one-dose screen, 48 h (100 = growth as untreated, 0 = no growth, -100 = all killed)
- MEASUREMENT PARAMETERS: 10 µM
Compounds without any hit were thinned out: in the full panel of roughly 83,000, 20% have a hit.
Catalogue of compounds with associated growth

COMPOUND: COc1ccc(/C(C#N)=C/c2ccccc2OC)cc1
TARGET ENTITY: RPMI-8226 leukemia
growth, %: 52.3
--
COMPOUND: COc1cc(C2CC(c3ccc4c(c3)OCO4)=NN2c2ccccc2)cc(OC)c1OC (configuration not stated)
TARGET ENTITY: RPMI-8226 leukemia
growth, %: 75.7
--
COMPOUND: O[C@@H]1CO[C@H]2[C@@H]1OC[C@@H]2O
TARGET ENTITY: RPMI-8226 leukemia
growth, %: 112
--
COMPOUND: CCN(CC)CCOc1cccc2c1C(=O)c1ccccc1C2=O
TARGET ENTITY: RPMI-8226 leukemia
growth, %: 86
--
COMPOUND: O=S(=O)(Oc1ccc(-c2ccc3sccc3c2)cc1)c1ccc(F)cc1
TARGET ENTITY: RPMI-8226 leukemia
growth, %: 96.4
--
COMPOUND: COc1cc(-c2nc3ccccc3o2)cc(CN2CCCCC2)c1O
TARGET ENTITY: RPMI-8226 leukemia
growth, %: 45.1
--
COMPOUND: COc1ccc(/C=C2\CCCC3=C2NC(N)=NC3c2ccc(OC)c(OC)c2)cc1OC (configuration not stated)
TARGET ENTITY: RPMI-8226 leukemia
growth, %: 15.2

====

- Tested on: SW-620 colon
- ASSAY OVERVIEW: NCI-60 one-dose screen, 48 h
- MEASUREMENT PARAMETERS: 10 µM
Compounds without any hit were thinned out: in the full panel of roughly 83,000, 20% have a hit. Active and inactive are the calls of the source. How the source made its calls: active means growth percent below 10; inactive means the rest.
Possible outcomes: t (active), f (inactive)

COMPOUND: Cc1cc(NC(=O)c2ccc(C)c(Nc3nccc(-c4cccnc4)n3)c2)cc(-n2cnc(C)c2)c1
CLASS ASSIGNMENT: f
--
COMPOUND: COc1cc(-c2csc(NC(=O)Nc3ccc(Cl)c(C(F)(F)F)c3)n2)cc(OC)c1OC
CLASS ASSIGNMENT: f
--
COMPOUND: COc1ccc(/C=C2\CCCC3C2=Nc2ccccc2NC3c2ccc(OC)cc2)cc1 (stereo not given)
CLASS ASSIGNMENT: f
--
COMPOUND: COc1cc2c(cc1NC(=O)C(Cl)Cl)-c1ccc(NC(=O)C(Cl)Cl)cc1C2
CLASS ASSIGNMENT: t
--
COMPOUND: CCOc1ccccc1/C=N\N=C\c1ccccc1O
CLASS ASSIGNMENT: f
--
COMPOUND: CN1CCc2c(sc3nc4n(-c5ccc(Cl)cc5)c(=O)[nH]n4c(=O)c23)C1
CLASS ASSIGNMENT: f
--
COMPOUND: CS(=O)(=O)c1nccc(-c2c(-c3cccc(OCc4ccc(F)cc4)c3)nc3sccn23)n1
CLASS ASSIGNMENT: f
--
COMPOUND: O=C(CCn1cnc2c(cc(-c3ccccc3)n2-c2ccccc2)c1=O)Nc1ccc(F)cc1
CLASS ASSIGNMENT: f
--
COMPOUND: Nc1nc(Cn2c(-c3nonc3N)nc3ccccc32)nc(N2CCCCC2)n1
CLASS ASSIGNMENT: f
--
COMPOUND: O=C(Nc1ccc(OCc2nnc(-c3ccc(Cl)cc3)o2)c(F)c1)Nc1ccc(Cl)c(C(F)(F)F)c1
CLASS ASSIGNMENT: f
--
COMPOUND: CCN(CC)CCOc1cccc2c1C(=O)c1ccccc1C2=O
CLASS ASSIGNMENT: f
--
COMPOUND: COc1ccc(C(=O)CSc2nc(-c3cc(OC)ccc3OC)cc(-c3ccc(OC)cc3)c2C#N)cc1
CLASS ASSIGNMENT: f
--
COMPOUND: COc1ccc(-c2cc(-c3ccc(Cl)cc3)nc(SCCCC(=O)NO)n2)cc1
CLASS ASSIGNMENT: f
--
COMPOUND: Clc1ccc(C2=NN=C3C(Cc4ccccc4)=Nc4ccccc4N3C2)cc1
CLASS ASSIGNMENT: f
--
COMPOUND: C[C@@H](C[C@H](CCO)c1ccccc1)c1ccc2ccccc2c1
CLASS ASSIGNMENT: t
--
COMPOUND: CCCCc1oc2ccccc2c1C(=O)c1cc(I)c(OCCN(CC)CC)c(I)c1
CLASS ASSIGNMENT: t
--
COMPOUND: O=C(CSc1nccc(Nc2cccc3ccccc23)n1)c1ccc(Cl)cc1
CLASS ASSIGNMENT: f
--
COMPOUND: COC(=O)c1c[nH]c2cc(OC(C)C)c(OC(C)C)cc2c1=O
CLASS ASSIGNMENT: f
--
COMPOUND: CC(C)(C)c1ccc(S(=O)(=O)Oc2ccc(NC(=O)C3CCCCC3)cc2)cc1
CLASS ASSIGNMENT: f
--
COMPOUND: O=C(CSc1nnc(-c2ccc(Cl)cc2)o1)Nc1ccc(C(=O)/C=C/c2ccc(Cl)cc2)cc1
CLASS ASSIGNMENT: f
--
COMPOUND: CNC(=O)c1c(I)c(NC(C)=O)c(I)c(C(=O)O)c1I
CLASS ASSIGNMENT: f
--
COMPOUND: CN(C)CCCN1c2ccccc2CCc2ccc(Cl)cc21
CLASS ASSIGNMENT: f
--
COMPOUND: C[C@]12CC[C@@H]3c4ccc(OS(=O)(=O)O)cc4CC[C@H]3[C@@H]1CC[C@@H]2NS(=O)(=O)c1ccc(-c2ccccc2)cc1
CLASS ASSIGNMENT: f
--
COMPOUND: C=CCn1c(SCC(=O)Nc2ccc(C(=O)/C=C/c3ccc(OC)cc3)cc2)nnc1-c1ccc(OC)c(OC)c1
CLASS ASSIGNMENT: f
--
COMPOUND: CC(C)(C)OC(=O)N1CCc2c(sc3ncnc(N/N=C/c4ccccc4Br)c23)C1
CLASS ASSIGNMENT: f
